study_system: T1, BoNT/F1 (proteolytic BoNT/F) (Clostridium botulinum, UniProt A7GBG3 1-1278)
T1 sequence: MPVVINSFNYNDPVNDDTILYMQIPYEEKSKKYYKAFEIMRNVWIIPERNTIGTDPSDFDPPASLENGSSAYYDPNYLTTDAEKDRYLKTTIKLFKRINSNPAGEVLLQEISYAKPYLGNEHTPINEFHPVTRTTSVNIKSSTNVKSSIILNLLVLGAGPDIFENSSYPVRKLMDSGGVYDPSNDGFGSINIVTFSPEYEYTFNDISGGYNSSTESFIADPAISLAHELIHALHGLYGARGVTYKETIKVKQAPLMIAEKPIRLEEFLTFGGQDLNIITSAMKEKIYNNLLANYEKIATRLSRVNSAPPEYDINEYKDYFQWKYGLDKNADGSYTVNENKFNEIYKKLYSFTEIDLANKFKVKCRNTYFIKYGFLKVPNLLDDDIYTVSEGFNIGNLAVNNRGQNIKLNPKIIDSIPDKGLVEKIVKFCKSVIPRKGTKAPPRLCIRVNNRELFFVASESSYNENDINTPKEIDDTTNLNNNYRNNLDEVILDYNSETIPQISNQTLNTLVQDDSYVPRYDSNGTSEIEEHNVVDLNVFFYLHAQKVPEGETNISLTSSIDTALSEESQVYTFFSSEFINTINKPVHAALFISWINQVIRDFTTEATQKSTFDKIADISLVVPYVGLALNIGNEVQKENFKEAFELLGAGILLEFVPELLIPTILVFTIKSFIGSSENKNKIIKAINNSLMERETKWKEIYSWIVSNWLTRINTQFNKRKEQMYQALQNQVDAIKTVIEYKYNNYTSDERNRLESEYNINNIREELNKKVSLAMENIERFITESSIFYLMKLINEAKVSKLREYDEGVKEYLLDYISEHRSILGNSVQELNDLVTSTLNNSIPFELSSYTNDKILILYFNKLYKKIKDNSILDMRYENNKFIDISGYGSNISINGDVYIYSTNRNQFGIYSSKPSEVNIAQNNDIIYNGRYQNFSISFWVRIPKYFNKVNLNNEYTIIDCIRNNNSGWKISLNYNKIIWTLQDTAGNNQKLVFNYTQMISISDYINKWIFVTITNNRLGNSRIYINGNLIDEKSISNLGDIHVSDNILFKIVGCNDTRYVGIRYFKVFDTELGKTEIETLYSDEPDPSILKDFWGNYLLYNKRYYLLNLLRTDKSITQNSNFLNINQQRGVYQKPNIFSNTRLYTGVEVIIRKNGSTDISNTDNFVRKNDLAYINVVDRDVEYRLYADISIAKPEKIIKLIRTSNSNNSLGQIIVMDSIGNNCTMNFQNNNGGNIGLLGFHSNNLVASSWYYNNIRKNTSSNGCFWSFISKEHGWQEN
method_notes: yeast scFv FACS
measured_parameter: pKd
When answering, recall that pKd equals minus log10 of the concentration in mol/L, and write that number alone.

Example entries and their recorded answers appear below.
>  <binder>
29B8 scFv (scFv, V domains shown) VH: EVQLQQSGAELVKPGASVKLSCTASGFNIKDYYMHWVKQRTEQGLEWIGRIDPEDGETKYAPKFQGKATITADTSSNTAYLQLSSLTSEDTAVYYCVSLLRSRTGYFDYWGQGTTLTVSS VL: ENVLTQSPAIMSASPGEKVTMTCSASSSVSYMHWYQQKSGTSPKRWIYDTSNLAPGVPARFSGSGSGTSYSLTISSMEAEDAASYFCHQWSSYPYTFGGGTKLEIK

>  <number>
7.45

$$$$
>  <binder>
29A2 scFv (scFv, V domains shown) VH: EVQLLETGGDLVKPGGSLKLSCAASGFTFSYYGMSWVRQTPDKRLEWVATISSGGSYTYYPDSVKGRFTISRDNAKNTLYLQMSSLKSEDTAMYYCARRRVYYGSSYEDYWGQGTTLTVSS VL: EIVLTQSPALMSASPGEKVTMTCSASSSVSYMYWYQQKPRSSPKPWIYLTSNLASGVPARFSGSGSGTSYSLTISSMEAEDAATYYCQQWSSNPYTFGGGTKLELK

>  <number>
9.00

$$$$

Let us examine a further case.
For the binder 28H4 scFv (scFv, V domains shown) VH: EVQLQQSGAELAKPGASVKLSCKASGYTFTSYWMHWVKQGPGQGLEWIGAIYPGNSDTGYNQKFKGKAKLTAVTSASTAYMELSSLTNEDSAVYYCTRHGYYIYALDYWGQGTSVTVSS VL: DIVLTQSPAIMSASPGEKVTMTCSASSSVSYMYWYQQKPGSSPKPWIYRTSNLASGVPVRFSGSGSGTSYSLTISSMEAEDAATYYCQQYHNFPPTFGGGTKLEIK , what pKd is on record?
7.70
